# EXPERIMENT_SUMMARY: AUC (infinity) in CD-1 mouse at 5 mg/kg, iv measured for 0.05 to 24 hrs by UPLC analysis
# Type: ADME, organism-based
# CONDITION_NOTES: in vivo, time 0.05-24 hrs
ASSAY_READOUT: AUC(0-inf)

compound="CCCCCCCCC(O)C[S+](C)CCCNCc1c(O)cc2c(c1O)-c1cc(ccc1O)[C@H]1NC(=O)[C@@H]3NC(=O)[C@H](CC(N)=O)NC(=O)[C@H](NC(=O)[C@@H](CC(C)C)NC)[C@H](O)c4ccc(c(Cl)c4)Oc4cc3cc(c4O[C@@H]3O[C@H](CO)[C@@H](O)[C@H](O)[C@H]3O[C@H]3C[C@](C)(N)[C@H](O)[C@H](C)O3)Oc3ccc(cc3Cl)[C@@H](O)[C@H](NC1=O)C(=O)N[C@@H]2C(=O)O.O=C([O-])C(F)(F)F (some centres not stated)" assay_readout=AUC(0-inf) recorded_result="7080 ng·h/mL"
compound="CN[C@H](CC(C)C)C(=O)N[C@H]1C(=O)N[C@@H](CC(N)=O)C(=O)N[C@H]2C(=O)N[C@H]3C(=O)N[C@H](C(=O)N[C@H](C(=O)O)c4cc(O)c(CNCCC[S+](C)CC(O)COc5ccc(-c6ccc(C(F)(F)F)cc6)cc5)c(O)c4-c4cc3ccc4O)[C@H](O)c3ccc(c(Cl)c3)Oc3cc2cc(c3O[C@@H]2O[C@H](CO)[C@@H](O)[C@H](O)[C@H]2O[C@H]2C[C@](C)(N)[C@H](O)[C@H](C)O2)Oc2ccc(cc2Cl)[C@H]1O.O=C([O-])C(F)(F)F (some centres not stated)" assay_readout=AUC(0-inf) recorded_result="42000 ng·h/mL"
